Values compiled from the supplement of paper PMC8728848.

Target: Gal(b1-4)GlcNAc(b1-3)Gal(b1-4)[Fuc(a1-3)]GlcNAc(b1-3)Gal(b1-4)[Fuc(a1-3)]GlcNAc
Test: glycan array binding signal (z-score within array); higher = stronger binding
Conditions: glycan notation: IUPAC condensed, linker removed
The full list was thinned out, with the strongest signals kept by preference.
Measured parameter: glycan array binding signal (z-score)
Give only the figure.

Entry under test: Epa21 (Candida glabrata) (protein) MGSSHHHHHHSSGLVPRGSHMASTPNIESHPQGCSPVDTSGIKPGLKMDLYRFPITPPGTGCWSWDWLTVTPDFPRSGYWKWPKIAEVDGVVGPLHLDSGHPTCDPLTSVLPHGFNYLQSITTTNFTMVLHGYFVPKQSGKYTFEFKADDALLLNLGAGNAFSCCDYNNSQYNQGEYLAYAIWSKNNQTATLYLEKGIYYPIRVFYHNRCCGAYMDVVYYFNDSPIPNRDFSGLLFSIPDSDSCDANI . Its glycan array binding signal (z-score) was -0.493

Entry under test: LecB PA7 (Pseudomonas aeruginosa) (protein) MATQGVFTLPANTRFGVTAFANSSATQTVKVLVNNETAATFTGQSTNNAVIGSQVLNSGGGGKVQIQVSVNGRSSDLVSAQVILANELNVALVGSEDSTDNDYNDAVVVINWPLG . Its glycan array binding signal (z-score) was 2.05

Entry under test: PGP3 (Chlamydia trachomatis), P0CE18 (protein) MGNSGFYLYNTQNCVFADNIKVGQMTEPLKDQQIILGTTSTPVAAKMTASDGISLTVSNNPSTNASITIGLDAEKAYQLILEKLGDQILGGIADTIVDSTVQDILDKITTDPSLGLLKAFNNFPITNKIQCNGLFTPRNIETLLGGTEIGKFTVTPKSSGSMFLVSADIIASRMEGGVVLALVREGDSKPYAISYGYSSGVPNLCSLRTRIINTGLTPTTYSLRVGGLESGVVWVNALSNGNDILGITNTSNVSFLEVIPQTNA . Its glycan array binding signal (z-score) was 0.322

Entry under test: CBM32-5 (Clostridium perfringens) (protein) MGSSHHHHHHSSGLVPRGSHMASALPQGNMKATATSEHPDVGNEGLAKFAIDGKENTIWHTKYNPVEELPQSITLELGGSYEINKFTYLPRSGAKNGNITKYELHVSEDGNNFRKISEGNWDDSGSLKTLKFNSTKATHVKLVALEGVGGFASAAELNVFA . Its glycan array binding signal (z-score) was -0.59
